Assay: Quantitative High-Throughput drug screen in 47 multiple myeloma cell lines against the NCATS MIPE library collection: XG1_PLB cell viability assay (AID 1919866); also: nearly all actives have a fitted effect of over 35% in size; also: potency is read from the fitted curve at half-maximal effect
Conditions: CellTiter-Glo ATP, 48 h; series mostly up to 45.8 µM
Records with an inconclusive call do not appear. Active and inactive are the calls of the source. Calls follow the shape of the dose curve; as a rule, active = well fitted cell-killing curve with a large enough effect; inconclusive = small, poorly fitted or top-dose-only effect, or effect the other way; inactive = no such curve, though single readings can be large or run the other way. Starred links: 1 amine or outer side, 2 acyl side, 3 side chain; linkers in the order of their positions; H or OH if unused. Positions of bridges follow the written chain, without caps; N, C: chain ends. Non-standard residues stand in square brackets, D forms with d. Residues, ends and D or L forms follow the SMILES beside them. Chains are numbered I, II in the order given. Actinocin(9to1) = Cc1c2oc3c(C)ccc(C(=O)[*:1])c3nc-2c(C(=O)[*:2])c(N)c1=O; NMeV = CN[CH](C(=O)O)C(C)C; Sar = CNCC(=O)O
measured.attribute: Potency

Please review the following examples before continuing.
{"compound": "COC1=C(OC)C(=O)C(CC=C(C)CCC=C(C)CCC=C(C)CCC=C(C)CCC=C(C)CCC=C(C)CCC=C(C)CCC=C(C)CCC=C(C)CCC=C(C)C)=C(C)C1=O", "Potency": "inactive"}
{"compound": "COc1ccc(S(=O)(=O)Nc2cc(-c3c(O)ccc4ccccc34)c(O)c3ccccc23)cc1", "Potency": "5260 nM (active)"}
{"compound": "Cc1c2oc3c(C)ccc(C(=O)NC4C(=O)NC(C(C)C)C(=O)N5CCCC5C(=O)N(C)CC(=O)N(C)C(C(C)C)C(=O)OC4C)c3nc-2c(C(=O)NC2C(=O)NC(C(C)C)C(=O)N3CCCC3C(=O)N(C)CC(=O)N(C)C(C(C)C)C(=O)OC2C)c(N)c1=O (stereo unspecified) (I: TVP[Sar][NMeV] / II: TVP[Sar][NMeV]; ester I:1-I:C, II:1-II:C; linker I:N-II:N via Actinocin(9to1); configuration not given here)", "Potency": "inactive"}
{"compound": "C[N+]1(C)[C@@H]2C[C@@H](OC(=O)C(O)(c3cccs3)c3cccs3)C[C@H]1[C@@H]1O[C@@H]12", "Potency": "inactive"}
{"compound": "Nc1ccn(C2CO[C@H](CO)O2)c(=O)n1 (stereo partly specified)", "Potency": "inactive"}

We next turn to a different compound, shown below.
## Input Would you mind telling me what Potency value was observed for `C=CCNc1c(O)cc2c(O)c1C[C@@H](C)C[C@H](OC)[C@@H](O)[C@@H](C)C=C(C)[C@H](OC(N)=O)[C@@H](OC)C=CC=C(C)C(=O)N2` ?
## Output 418 nM (active)

====

Assay: qHTS for identification of novel therapeutic agents for treatment of microphthalmiaassociated transcription factor (MiT) renal cell carcinoma (RCC) (AID 1963991);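 also: curves scaled with 100% = DMSO viability and 0% = empty wells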
Details: TFE3-RCC viability, CellTiter-Glo, 48 h; measured here: UOK124 Z-AUC; stronger effect = lower value
Inconclusive results are not listed.
Below, each of the molecules is paired with its reported z-score value.
I only need the number, thanks.

Please review the following examples before continuing.
{"molecule": "C[C@H]1O[C@H](O[C@H]2[C@H](O)[C@@H](O)[C@@H](O[C@H]3[C@H](O)[C@@H](O)C(O)O[C@H]3CO)O[C@H]2CO)[C@H](O)[C@@H](O)[C@H]1N[C@H]1C=C(CO)[C@@H](O)[C@H](O)[C@@H]1O (stereo partly specified)", "z-score": 0.169}
{"molecule": "C[C@@H]1[C@H](C)CC[C@]2(C(=O)O)CC[C@]3(C)C(=CC[C@@H]4[C@@]5(C)C[C@@H](O)[C@H](O)[C@@](C)(CO)[C@H]5CC[C@]43C)[C@@H]12", "z-score": 0.271}

We next turn to a different molecule, shown below.
## Input Would you mind telling me what z-score value was observed for `NC(=O)c1cccc(-c2cccc(OC(=O)NC3CCCCC3)c2)c1` ?
## Output 0.852

====

Experiment: Quantitative High-Throughput drug screen in 47 multiple myeloma cell lines against the NCATS MIPE library collection: OCIMY5_PLB cell viability assay (AID 1918988); also: nearly all actives have a fitted effect of over 65% in size
Settings: OCI-MY5 myeloma viability, ATP luminescence, 48 h; series mostly up to 45.8 µM
Inconclusive results are not listed. Calls of active or inactive are those of the source. Calls follow the shape of the dose curve; as a rule, active = well fitted cell-killing curve with a large enough effect; inconclusive = small, poorly fitted or top-dose-only effect, or effect the other way; inactive = no such curve, though single readings can be large or run the other way.
Output constraint: value belongs to active, inactive

Below are worked cases with known answers.
{"molecule": "CC(C)c1cnn2c(NCc3ccccc3)cc(NCCCCCCN)nc12", "assigned.category": "active"}
{"molecule": "COc1ccc(Nc2cc(-c3cnc(N)nc3)nc(N3CCOCC3)n2)cn1", "assigned.category": "active"}
{"molecule": "CCN1CCN(C(=O)N[C@H](C(=O)N[C@@H]2C(=O)N3C(C(=O)O)=C(CSc4nnnn4C)CS[C@@H]23)c2ccc(O)cc2)C(=O)C1=O", "assigned.category": "inactive"}
{"molecule": "C[C@@H]1[C@H](C)CC[C@]2(C(=O)O)CC[C@]3(C)C(=CC[C@@H]4[C@@]5(C)C[C@@H](O)[C@H](O)[C@@](C)(CO)[C@H]5CC[C@]43C)[C@@H]12", "assigned.category": "inactive"}
{"molecule": "Cn1cnc2c(F)c(Nc3ccc(Br)cc3F)c(C(=O)NOCCO)cc21", "assigned.category": "inactive"}

In the following, a different molecule is considered.
## Input Tell me the assay call for Cc1ccc(O)c(C(CCN(C(C)C)C(C)C)c2ccccc2)c1 (stereo unspecified) please.
## Output inactive

====

Experiment: qHTS of pediatric cancer cell lines to identify multiple opportunities for drug repurposing: Primary screen for SJ-GBM2 cells (AID 1347091)
Conditions: SJ-GBM2 viability, CellTiter-Glo luminescence, 48 h; series mostly up to 46 µM
Records with an inconclusive call do not appear. Calls of active or inactive are those of the source. Calls follow the shape of the dose curve; as a rule, active = well fitted cell-killing curve with a large enough effect; inconclusive = small, poorly fitted or top-dose-only effect; inactive = no such curve, though single readings can be large or run the other way.
Output constraint: value belongs to label 1 = active, label 0 = inactive

{"compound": "C=C(C)[C@@H]1CC[C@]2(C)CC[C@]3(C)[C@H](CC[C@@H]4[C@@]5(C)CC[C@H](O)C(C)(C)[C@H]5CC[C@]43C)[C@@H]12", "assigned.category": "label 0"}

## Input Tell me the assay call for `CN(C)c1ccc2cc(C(=O)N[C@@H](CCCN=C(N)CCl)C(=O)NCc3ccccc3)ccc2c1` please.
## Output label 1

## Input Let us now turn to `C[C@@]12C[C@@]3(O)O[C@@H](O1)[C@]1(COC(=O)c4ccccc4)[C@@H]3C[C@@]12O[C@@H]1O[C@H](CO)[C@@H](O)[C@H](O)[C@@H]1O`
## Output label 0

====

Test: Quantitative High-Throughput drug screen in 47 multiple myeloma cell lines against the NCATS MIPE library collection: EJM_DSMZ cell viability assay (AID 1918926; also: nearly all actives have a fitted effect of over 30% in size)
Details: EJM myeloma cell viability, CellTiter-Glo ATP, 48 h; series mostly up to 45.8 µM
Inconclusive results are not listed. Active and inactive are the calls of the source. Calls follow the shape of the dose curve; as a rule, active = well fitted cell-killing curve with a large enough effect; inconclusive = small, poorly fitted or top-dose-only effect, or effect the other way; inactive = no such curve, though single readings can be large or run the other way.
Output constraint: value belongs to yes = active, no = inactive

{"compound": "C[C@H](NCc1ccc2c(c1)nc(NC(=O)c1ccc(-c3cn[nH]c3)s1)n2CCc1ccccc1)C(C)(C)C", "assigned.category": "yes"}
{"compound": "O=C(Nc1cc2cc[nH]c2cn1)c1ccccc1", "assigned.category": "yes"}
{"compound": "COc1ccc([C@@H]2CNC(=O)C2)cc1OC1CCCC1", "assigned.category": "no"}
{"compound": "COc1cc(N2CCC(C(N)=O)CC2)ccc1Nc1nc(N)c(Cl)c(Nc2ccccc2S(=O)(=O)C(C)C)n1", "assigned.category": "yes"}
{"compound": "CC(C)(C)c1nc2c3cc[nH]c(=O)c3c3cc(F)ccc3c2[nH]1", "assigned.category": "yes"}

## Input Tell me the assay call for CC(Cc1ccc(O)c(O)c1)(NN)C(=O)O (stereo not given) please.
## Output no

## Input Let us now turn to C[C@@H]1CC[C@@]2(OC1)OC1CC3C4CC=C5CC(O)CCC5(C)C4CCC3(C)C1[C@@H]2C (stereo not given in full)
## Output no

## Input Let us now turn to COc1cc(O)c2c(c1)C1OC1C[C@H](O)[C@H](O)C(=O)C=CC[C@H](C)OC2=O (stereo not given in full)
## Output yes

## Input Let us now turn to O=C1CSC(=O)N1C(CCc1ccncc1)COc1ccc(-c2cccc([N+](=O)[O-])c2)cc1 (stereo not given)
## Output yes

## Input Let us now turn to `Cc1[nH]c(C=C2C(=O)Nc3ccccc32)c(C)c1CCC(=O)O`
## Output yes

## Input Let us now turn to `COC1=C(OC)C(=O)C(CC=C(C)CCC=C(C)CCC=C(C)CCC=C(C)CCC=C(C)CCC=C(C)CCC=C(C)CCC=C(C)CCC=C(C)CCC=C(C)C)=C(C)C1=O`
## Output no

## Input Let us now turn to `C[C@@H]1[C@H](C)CC[C@]2(C(=O)O)CC[C@]3(C)C(=CC[C@@H]4[C@@]5(C)C[C@@H](O)[C@H](O)[C@@](C)(CO)[C@H]5CC[C@]43C)[C@@H]12`
## Output no

## Input Let us now turn to `OC[C@@H](O)[C@@H](O)[C@H](O)[C@@H](O)CO`
## Output no

## Input Let us now turn to `Cn1cc(-c2cnn3c(N)c(Br)c([C@H]4CCCNC4)nc23)cn1`
## Output yes

## Input Let us now turn to `CO[C@@H]1[C@@H](O)[C@H](O)[C@@H](n2c3c(Cl)cccc3c3c4c(c5c6cccc(Cl)c6[nH]c5c32)C(=O)NC4=O)O[C@@H]1CO`
## Output yes

## Input Let us now turn to `O=C(Nc1cccc(Nc2ncc(Br)c(NCCc3cnc[nH]3)n2)c1)N1CCCC1`
## Output yes
